These data points were gathered from paper PMC9352680.

Target: T1, PUF4 RNA-binding domain (Saccharomyces cerevisiae, UniProt P25339 537-888)
T1 sequence: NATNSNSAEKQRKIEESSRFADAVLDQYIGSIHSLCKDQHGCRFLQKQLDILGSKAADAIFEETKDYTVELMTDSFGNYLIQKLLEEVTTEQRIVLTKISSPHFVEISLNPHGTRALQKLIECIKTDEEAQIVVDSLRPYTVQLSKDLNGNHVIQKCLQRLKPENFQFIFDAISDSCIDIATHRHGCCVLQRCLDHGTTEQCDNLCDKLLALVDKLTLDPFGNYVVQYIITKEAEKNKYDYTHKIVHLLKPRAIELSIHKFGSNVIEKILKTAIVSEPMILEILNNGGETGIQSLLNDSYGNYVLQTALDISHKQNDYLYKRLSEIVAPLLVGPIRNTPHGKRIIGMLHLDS
Experiment: Mg; RNA-MaP; 20 mM Na-HEPES pH 7.4, 30 mM KOAc, 0.75 mM MgCl2, 0.1% Tween-20, 5% glycerol, 0.1 mg/mL BSA, 2 mM DTT; 25 C; 0.0125-409.6 nM protein
Settings: tags: N-His6-TEV cleaved; C-SNAP kept, Cy3B-labelled; label: tethered on chip by stalled RNA polymerase
READOUT LABEL: log10(Kd) (log10 of the value in nM)

{"BINDER": "Id_ii_S2_P5E.3_K5.2_C5.2_[C-2T]_[T-1C]_H5.2_A5.1_F5.1_T5.2_[T11C]_[A12C] (ssRNA) RNA: UUUGAUUAAUAUGAUAUCGUUCUUUCUUCUAUAUUAUUACCUUCUUUCUCGAUAUCAUAUUAAUCUUU", "READOUT LABEL": "log10(Kd)", "OBSERVED MEASUREMENT": 1.82}
{"BINDER": "UCUCUUUAUAUAUUAUUAUCUCUCUU (ssRNA) [Id_ii_S1_P5E.3_K5.2_C5.2_[C-2T]_[T-1A]_H5.2_A5.1_F5.1_T5.2_[A12C]]", "READOUT LABEL": "log10(Kd)", "OBSERVED MEASUREMENT": 1.32}
{"BINDER": "UCUCUUUGUAUUAUUCCCUUAUCUCUU (ssRNA) [Ie_S1_P5E.1_K5.1_C5.1_H5.1_A5.1_F5.1_[+9CCCTT]_T5.1]", "READOUT LABEL": "log10(Kd)", "OBSERVED MEASUREMENT": 1.25}
{"BINDER": "ACAAACGAUAUAUUAUUAAUACAAAC (ssRNA) [Id_ii_S3_P5E.3_K5.2_C5.2_[C-2G]_[T-1A]_H5.2_A5.1_F5.1_T5.2_[T11A]_[A12T]]", "READOUT LABEL": "log10(Kd)", "OBSERVED MEASUREMENT": 2.45}
{"BINDER": "UCUCUUUGUAUUACUAUCUCUU (ssRNA) [Ia_S1_P5E.1_K5.1_C5.1_H5.1_A5.1_F5.1_[T8C]_T5.1]", "READOUT LABEL": "log10(Kd)", "OBSERVED MEASUREMENT": 1.00}
{"BINDER": "UCUCUUCUUGUAUAUUAACUCUCUU (ssRNA) [Id_ii_S1_P4E.2_K4.1_C4.2_H4.1_A4.1_F4.1_T4.2_[G10A]_[T11C]]", "READOUT LABEL": "log10(Kd)", "OBSERVED MEASUREMENT": -0.06}
